These measurements were taken from ChEMBL document CHEMBL3988442.

- Test system: Trypanosoma cruzi
- TEST_SUMMARY: Trypanosoma cruzi phosphomannomutase and mannose-1-phosphate guanylyltransferase assay
- Assay type: functional
- Design: scale not given: direction of the effect not stated beside the values
- CONDITION_CONTEXT: 10 µM
Kindly state Percent Effect for each of the entries shown.
Numbers only, in %.

compound="CCCC(C)CN1CCC(n2cc(C3CCCC3)nn2)CC1 (stereo not given)" readout_kind="Percent Effect" result_value=9.45
compound=Cn1nc(C2CCN(C(=O)Cc3cccc(F)c3)CC2)c2cccnc21 readout_kind="Percent Effect" result_value=4.35
compound="c1ccc2sc(CN3CCOC(Cn4cccn4)C3)nc2c1 (stereo not given)" readout_kind="Percent Effect" result_value=-4.06
compound="CC(=O)N1CCCC(c2cnc(-c3c(C)nn(C)c3C)cn2)C1 (stereo not given)" readout_kind="Percent Effect" result_value=-2.17
compound=O=C(Cc1ccc(F)cc1)N1CCn2cc(Cn3cccn3)nc2C1 readout_kind="Percent Effect" result_value=-1.66

Each of the following entries comes with a recorded value; kindly state Percent Effect for each.
1. Cc1ccc(CC(=O)NC(C)C(=O)N2CCS(=O)(=O)CC2)cc1 (stereo not given)
2. CCc1nnc2n1CCN(CCS(=O)(=O)c1ccccc1)C2
3. O=S(=O)(NCC1(O)CCOc2ccccc21)c1cccs1 (stereo not given)
4. COc1ccc(C[C@H]2CN(c3nnc(C)s3)CC[C@@H]2OC)cc1
5. CC(C)S(=O)(=O)c1nnc(CCNC(=O)OC(C)(C)C)o1
6. CCCNC(=O)c1sccc1N(C)S(=O)(=O)c1ccc(Cl)cc1
7. Cc1nc(CN2C(=O)C[C@@H]3[C@@H]2CCN3C(=O)C2CCOCC2)cs1
8. Cc1csc(N2CCN(C(=O)CCNc3ncccn3)CC2)n1

Marked response:
-2.9
-3.37
-3.72
2.7
-5.3
-8.67
4.17
1.42

Provide reported Percent Effect for each item, in the same order as listed.
1. CC1=Nc2c(c(=O)[nH]n2C(C)C)C(c2ccccc2)S1 (stereo not given)
2. O=C(c1cncc(Br)c1)N1CCC(O)(Cn2ccc3ccncc32)CC1

Marked response:
1. -0.786
2. -7.91
